- Test system: Mycolicibacterium smegmatis
- PROTOCOL_TEXT: Antimycobacterial activity against Mycobacterium smegmatis str. MC2 155 ATCC 700084 assessed as inhibition of mycobacterial growth incubated for 24 hrs by MABA method
- Type: functional
- CONDITION: MC2 155 ATCC 700084, 24 h
ENDPOINT: MIC (µg/mL)
Reply with just the number (in µg/mL).

Cc1cc(CN2CCN(C34CC5CC(CC(C5)C3)C4)CC2)c(C)n1-c1ccc(Cl)cc1 :: 8

Turning to the following molecule.
# input Please respond with reported MIC (system Mycolicibacterium smegmatis) for `Cc1cc(CNCc2ccccc2)c(C)n1-c1ccc(F)cc1` .
# output 16
